Molecular target: CCR2 (Homo sapiens, UniProt P41597)
Construct: Membranes were prepared from THP-1 cells; endogenous in cells
Sequence (P41597 1-360 isoform P41597-2): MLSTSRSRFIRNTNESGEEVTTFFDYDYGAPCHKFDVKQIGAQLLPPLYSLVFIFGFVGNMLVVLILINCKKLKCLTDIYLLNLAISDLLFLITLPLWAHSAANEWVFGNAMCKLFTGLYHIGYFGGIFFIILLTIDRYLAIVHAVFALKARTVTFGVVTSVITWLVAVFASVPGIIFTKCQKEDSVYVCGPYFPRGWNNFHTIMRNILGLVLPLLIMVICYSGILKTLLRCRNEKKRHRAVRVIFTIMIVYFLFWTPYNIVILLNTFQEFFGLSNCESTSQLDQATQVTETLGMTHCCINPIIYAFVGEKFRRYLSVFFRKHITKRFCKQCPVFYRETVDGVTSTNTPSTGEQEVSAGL
Assay: CCR2 receptor membrane binding assay ([125I]MCP-1, THP-1 membranes, SPA beads)
Details: THP-1 cell membranes; [125I]MCP-1 displacement; bound radioactivity after 8 h; read-out: hKi
Field: Ki. Provide a value for each of the compounds that follow.

Some compounds with recorded Ki:
[
  {
    "compound": "Cc1c(NC[C@H]2CCC[C@@H](c3ccc(OC(F)(F)F)cc3)O2)cnnc1C(=O)N1CCC(NC2CCOCC2F)CC1 (stereo partly shown)",
    "Ki": "5 nM"
  },
  {
    "compound": "CO[C@@H]1COCC[C@@H]1NC1CCN(C(=O)c2nncc(N3CCc4ccc(C(F)(F)F)cc4C3)c2C)CC1",
    "Ki": "16 nM"
  },
  {
    "compound": "CO[C@@H]1COCC[C@@H]1NC1CCN(C(=O)c2nncc(NC[C@H]3CCC[C@@H](c4ccc(C(F)(F)F)cc4)O3)c2C)CC1",
    "Ki": "3 nM"
  }
]

Attention now turns to another entry.
(Q) Name the reported Ki value associated with the compound CO[C@H]1COCC[C@H]1NC1CCN(C(=O)c2nncc(N3CCc4ccc(C(F)(F)F)cc4C3)c2C)CC1
(A) 73 nM
